# Test system: Streptococcus parasanguinis;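 also: lowest concentration where monotonic median growth AUC falls below 0.75 of drug-free control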
# experiment-description: IC25 growth inhibition; higher = less potent
quantity: IC25 growth inhibition

compound="O=C(Nc1ccc([N+](=O)[O-])cc1Cl)c1cc(Cl)ccc1O [Niclosamide]" assay_system="Streptococcus parasanguinis" measured="< 1.25 µM"
compound=COc1cccc2c1C(=O)c1c(O)c3c(c(O)c1C2=O)C[C@@](O)(C(=O)CO)C[C@@H]3O[C@H]1C[C@H](N)[C@H](O)[C@H](C)O1 assay_system="Streptococcus parasanguinis" measured="≤ 5 µM"
compound=CN(C)C(=N)NC(=N)N assay_system="Streptococcus parasanguinis" measured="> 160 µM"
compound="CCOC(=O)C1=C(C)NC(C)=C(C(=O)OC)C1c1cccc(Cl)c1Cl (stereo not given)" assay_system="Streptococcus parasanguinis" measured="≤ 40 µM"
compound=C/C=C(/C(=C/C)c1ccc(O)cc1)c1ccc(O)cc1 assay_system="Streptococcus parasanguinis" measured="> 40 µM"
compound=CCCc1nc2c(C)cc(-c3nc4ccccc4n3C)cc2n1Cc1ccc(-c2ccccc2C(=O)O)cc1 assay_system="Streptococcus parasanguinis" measured="> 160 µM"
compound="Clc1ccc(COC(Cn2ccnc2)c2ccc(Cl)cc2Cl)c(Cl)c1 (stereo not given)" assay_system="Streptococcus parasanguinis" measured="> 160 µM"
compound=CC(C)(O)c1ccccc1CC[C@@H](SCC1(CC(=O)O)CC1)c1cccc(/C=C/c2ccc3ccc(Cl)cc3n2)c1 assay_system="Streptococcus parasanguinis" measured="≤ 10 µM"
compound=COc1cc(C(=O)NS(=O)(=O)c2ccccc2C)ccc1Cc1cn(C)c2ccc(NC(=O)OC3CCCC3)cc12 assay_system="Streptococcus parasanguinis" measured="≤ 20 µM"
compound="CC(C)(C)c1ccc(C(O)CCCN2CCC(C(O)(c3ccccc3)c3ccccc3)CC2)cc1 (stereo not given)" assay_system="Streptococcus parasanguinis" measured="≤ 80 µM"
